We begin with a simple list: items and their reported Emax.
target: Delta-type opioid receptor (Homo sapiens, UniProt P41143); assay: Agonist activity at delta opioid receptor (unknown origin) expressed in HEK293-A cells assessed as reduction in forskolin-induced cAMP accumulation incubated for 30 mins by competition PKA binding assay relative to Tyr-D-Ala-Gly-Phe-Gln-Pro-Gln-Arg-Phe-NH2; assay type: functional, cell-based; details: filed as agonist
Sequence (P41143 whole entry): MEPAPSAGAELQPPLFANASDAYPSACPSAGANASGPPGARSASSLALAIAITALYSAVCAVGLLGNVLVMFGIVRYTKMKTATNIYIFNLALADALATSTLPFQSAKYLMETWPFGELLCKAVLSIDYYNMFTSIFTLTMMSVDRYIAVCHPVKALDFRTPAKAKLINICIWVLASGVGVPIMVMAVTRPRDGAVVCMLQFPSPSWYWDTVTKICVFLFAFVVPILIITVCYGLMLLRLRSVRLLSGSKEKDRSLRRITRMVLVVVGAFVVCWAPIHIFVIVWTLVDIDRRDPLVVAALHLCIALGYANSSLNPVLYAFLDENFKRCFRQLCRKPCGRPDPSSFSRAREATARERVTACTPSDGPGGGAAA
Non-standard residues stand in square brackets, D forms with d. Residues, ends and D or L forms follow the SMILES beside them. NMeF = CN[C@@H](Cc1ccccc1)C(=O)O
Record the value in %, omitting the unit from your answer.

The examples below pair each entry with its known result.
C[C@@H](NC(=O)[C@@H](N)Cc1ccc(O)cc1)C(=O)NCC(=O)N(C)[C@@H](Cc1ccccc1)C(=O)N[C@@H](CCC(N)=O)C(=O)N1CCC[C@H]1C(=O)N[C@@H](CCC(N)=O)C(=O)N[C@@H](CCCNC(=N)N)C(=O)N[C@@H](Cc1ccccc1)C(N)=O (H-Y[dA]G[NMeF]QPQRF-NH2)    84.9
C[C@@H](NC(=O)[C@@H](N)Cc1ccc(O)cc1)C(=O)NCC(=O)N[C@@H](Cc1ccccc1)C(=O)N[C@@H](CCC(N)=O)C(=O)N1CCC[C@H]1C(=O)N[C@@H](CCC(N)=O)C(=O)N[C@@H](CCCNC(=N)N)C(=O)N[C@@H](Cc1ccccc1)C(N)=O (H-Y[dA]GFQPQRF-NH2)    82.2
C[C@@H](NC(=O)[C@@H](N)Cc1ccc(O)cc1)C(=O)NCC(=O)N(C)[C@@H](Cc1ccccc1)C(=O)NCC(=O)N1CCC[C@H]1C(=O)N[C@@H](CCC(N)=O)C(=O)N[C@@H](CCCNC(=N)N)C(=O)N[C@@H](Cc1ccccc1)C(N)=O (H-Y[dA]G[NMeF]GPQRF-NH2)    85.4

Q. Could you tell me which Emax is on file for CSCC[C@H](NC(=O)[C@H](Cc1ccccc1)NC(=O)CNC(=O)[C@@H](C)NC(=O)[C@@H](N)Cc1ccc(O)cc1)C(=O)N1CCC[C@H]1C(=O)N[C@@H](CCC(N)=O)C(=O)N[C@@H](CCCNC(=N)N)C(=O)N[C@@H](Cc1ccccc1)C(N)=O (H-Y[dA]GFMPQRF-NH2) ?
A. 81.2

* * *

molecular target: Delta-type opioid receptor (Homo sapiens, UniProt P41143); experiment: Agonist activity at delta opioid receptor (unknown origin) expressed in HEK293-A cells assessed as reduction in forskolin-induced cAMP accumulation incubated for 30 mins by competition PKA binding assay relative to Tyr-D-Ala-Gly-Phe-Gln-Pro-Gln-Arg-Phe-NH2; assay type: functional, cell-based; conditions: filed as agonist
Non-standard residues stand in square brackets, D forms with d. Residues, ends and D or L forms follow the SMILES beside them.
Quick list: Emax per entry.
Answers without a unit are incomplete; give the number and then its unit.

For orientation, consider the following solved cases.
C[C@@H](NC(=O)[C@@H](N)Cc1ccc(O)cc1)C(=O)NCC(=O)N[C@@H](Cc1ccccc1)C(=O)N[C@H](C)C(=O)N1CCC[C@H]1C(=O)N[C@@H](CCC(N)=O)C(=O)N[C@@H](CCCNC(=N)N)C(=O)N[C@@H](Cc1ccccc1)C(N)=O (H-Y[dA]GF[dA]PQRF-NH2)    85.3%
CC(C)C[C@@H](NC(=O)[C@H](Cc1ccccc1)NC(=O)CNC(=O)[C@@H](C)NC(=O)[C@@H](N)Cc1ccc(O)cc1)C(=O)N1CCC[C@H]1C(=O)N[C@@H](CCC(N)=O)C(=O)N[C@@H](CCCNC(=N)N)C(=O)N[C@@H](Cc1ccccc1)C(N)=O (H-Y[dA]GF[dL]PQRF-NH2)    86.4%

Then there is this molecule:
Q. // returns reported Emax for input `CSCC[C@@H](NC(=O)[C@@H](N)Cc1ccc(O)cc1)C(=O)NCC(=O)N[C@@H](Cc1ccccc1)C(=O)N[C@@H](CCC(N)=O)C(=O)N1CCC[C@H]1C(=O)N[C@@H](CCC(N)=O)C(=O)N[C@@H](CCCNC(=N)N)C(=O)N[C@@H](Cc1ccccc1)C(N)=O`
A. 84.7%
